Tested on: A. fumigatus MYA-3626
Test: MEC assay (Example 31)
Assay type: cell-based
Conditions: RPMI pH 7.0, 35° C., 24-48 hr
Recorded MEC by entry
Report as a plain number; the unit µg/mL is understood.

Please review the entries below; each comes with its answer.
## Input Quick check: MEC of CC[C@H](C)C[C@H](C)CCCCCCCCC(=O)N[C@H]1C[C@@H](O)[C@@H](OCCNC(=O)CCNC(=O)[C@H](Cc2ccccc2)NC(=O)[C@H](CC(C)C)NC(=O)[C@H](CCSC)NC=O)NC(=O)[C@@H]2[C@@H](O)CCN2C(=O)[C@H]([C@H](O)CCN)NC(=O)[C@H]([C@H](O)[C@@H](O)c2ccc(O)cc2)NC(=O)[C@@H]2C[C@@H](O)CN2C(=O)[C@H]([C@@H](C)O)NC1=O [Compound 9] ?
## Output 0.12

## Input Param item: CC[C@H](C)C[C@H](C)CCCCCCCCC(=O)N[C@H]1C[C@@H](O)[C@@H](OCCN)NC(=O)[C@@H]2[C@@H](O)CCN2C(=O)[C@H]([C@H](O)CCNC(=O)CCNC(=O)[C@H](Cc2ccccc2)NC(=O)[C@H](CC(C)C)NC(=O)[C@H](CCSC)NC=O)NC(=O)[C@H]([C@H](O)[C@@H](O)c2ccc(O)cc2)NC(=O)[C@@H]2C[C@@H](O)CN2C(=O)[C@H]([C@@H](C)O)NC1=O [Compound 10]
## Output 0.12

Now examine the next entry.
## Input Quick check: MEC of CC[C@H](C)C[C@H](C)CCCCCCCCC(=O)N[C@H]1C[C@@H](O)[C@@H](NCCNC(=O)CCNC(=O)[C@H](Cc2ccccc2)NC(=O)[C@H](CC(C)C)NC(=O)[C@H](CCSC)NC=O)NC(=O)[C@@H]2[C@@H](O)CCN2C(=O)[C@H]([C@H](O)CCN)NC(=O)[C@H]([C@H](O)[C@@H](O)c2ccc(O)cc2)NC(=O)[C@@H]2C[C@@H](O)CN2C(=O)[C@H]([C@@H](C)O)NC1=O [Compound 4] ?
## Output 2

---

Tested on: A. fumigatus MYA-3626
Assay: MEC assay (Example 31)
Assay type: cell-based
Settings: RPMI pH 7.0, 35° C., 24-48 hr
Recorded MEC by entry

## Input Quick check: MEC of CC[C@H](C)C[C@H](C)CCCCCCCCC(=O)N[C@H]1C[C@@H](O)[C@@H](OCCN)NC(=O)[C@@H]2[C@@H](O)CCN2C(=O)[C@H]([C@H](O)CCNC(=O)[C@H](Cc2ccccc2)NC(=O)[C@H](CC(C)C)NC(=O)[C@H](CCSC)NC=O)NC(=O)[C@H]([C@H](O)[C@@H](O)c2ccc(O)cc2)NC(=O)[C@@H]2C[C@@H](O)CN2C(=O)[C@H]([C@@H](C)O)NC1=O [Compound 11] ?
## Output 0.06 to 0.12 µg/mL

## Input Param item: CC[C@H](C)C[C@H](C)CCCCCCCCC(=O)N[C@H]1C[C@@H](O)[C@@H](NCCN)NC(=O)[C@@H]2[C@@H](O)CCN2C(=O)[C@H]([C@H](O)CCNC(=O)[C@H](CCCCN)NC(=O)[C@H](Cc2ccccc2)NC(=O)[C@H](CC(C)C)NC(=O)[C@H](CCSC)NC=O)NC(=O)[C@H]([C@H](O)[C@@H](O)c2ccc(O)cc2)NC(=O)[C@@H]2C[C@@H](O)CN2C(=O)[C@H]([C@@H](C)O)NC1=O [Compound 14]
## Output 0.25 µg/mL

## Input Param item: C[C@@H](c1ncncc1F)[C@](O)(Cn1cncn1)c1ccc(F)cc1F [voriconazole, reference compound]
## Output 0.12 to 0.5 µg/mL

## Input Param item: CC[C@H](C)C[C@H](C)CCCCCCCCC(=O)N[C@H]1C[C@@H](O)[C@@H](NCCN)NC(=O)[C@@H]2[C@@H](O)CCN2C(=O)[C@H]([C@H](O)CCNC(=O)CCNC(=O)[C@H](Cc2ccccc2)NC(=O)[C@H](CC(C)C)NC(=O)[C@H](CCSC)NC(C)=O)NC(=O)[C@H]([C@H](O)[C@@H](O)c2ccc(O)cc2)NC(=O)[C@@H]2C[C@@H](O)CN2C(=O)[C@H]([C@@H](C)O)NC1=O [Compound 7]
## Output 0.5 µg/mL

## Input Param item: CC[C@H](C)C[C@H](C)CCCCCCCCC(=O)N[C@H]1C[C@@H](O)[C@@H](NCCN)NC(=O)[C@@H]2[C@@H](O)CCN2C(=O)[C@H]([C@H](O)CCNC(=O)[C@H](Cc2ccccc2)NC(=O)[C@H](CC(C)C)NC(=O)[C@H](CCSC)NC=O)NC(=O)[C@H]([C@H](O)[C@@H](O)c2ccc(O)cc2)NC(=O)[C@@H]2C[C@@H](O)CN2C(=O)[C@H]([C@@H](C)O)NC1=O [Compound 1]
## Output 0.25 to 0.5 µg/mL

Now examine the next entry.
## Input Quick check: MEC of C[C@@H]1[C@H](O)[C@@H](C)/C=C/C=C/C=C/C=C/C=C/C=C/C=C/[C@H](O[C@@H]2O[C@H](C)[C@@H](O)[C@H](N)[C@@H]2O)C[C@@H]2O[C@](O)(C[C@@H](O)C[C@@H](O)[C@H](O)CC[C@@H](O)C[C@@H](O)CC(=O)O[C@H]1C)C[C@H](O)[C@H]2C(=O)O [amphotericin B, reference compound] ?
## Output 0.5 to 2 µg/mL

---

Tested on: C. parapsilosis ATCC 22019
Assay: microbe, parasite or virus in culture
Format: cell-based
Conditions: ATCC 22019, pH 7
Recorded MIC by entry
Report as a plain number; the unit µg/mL is understood.

## Input Any idea what MIC came out for `CC[C@H](C)C[C@H](C)CCCCCCCCC(=O)N[C@H]1C[C@@H](O)[C@@H](NCCN)NC(=O)[C@@H]2[C@@H](O)CCN2C(=O)[C@H]([C@H](O)CCNC(=O)[C@H](CCCCN)NC=O)NC(=O)[C@H]([C@H](O)[C@@H](O)c2ccc(O)cc2)NC(=O)[C@@H]2C[C@@H](O)CN2C(=O)[C@H]([C@@H](C)O)NC1=O` on C. parapsilosis ATCC 22019?
## Output 1

## Input Param item: `CC[C@H](C)C[C@H](C)CCCCCCCCC(=O)N[C@H]1C[C@@H](O)[C@@H](NCCN)NC(=O)[C@@H]2[C@@H](O)CCN2C(=O)[C@H]([C@H](O)CCNC(=O)[C@H](CC(C)C)NC(=O)[C@H](CCSC)NC=O)NC(=O)[C@H]([C@H](O)[C@@H](O)c2ccc(O)cc2)NC(=O)[C@@H]2C[C@@H](O)CN2C(=O)[C@H]([C@@H](C)O)NC1=O`
## Output 16

## Input Param item: `CC[C@H](C)C[C@H](C)CCCCCCCCC(=O)N[C@H]1C[C@@H](O)[C@@H](OCCN)NC(=O)[C@@H]2[C@@H](O)CCN2C(=O)[C@H]([C@H](O)CCNC(=O)[C@H](Cc2ccccc2)NC(=O)[C@H](CC(C)C)NC(=O)[C@H](CCSC)NC=O)NC(=O)[C@H]([C@H](O)[C@@H](O)c2ccc(O)cc2)NC(=O)[C@@H]2C[C@@H](O)CN2C(=O)[C@H]([C@@H](C)O)NC1=O`
## Output 32

## Input Param item: `CC[C@H](C)C[C@H](C)CCCCCCCCC(=O)N[C@H]1C[C@@H](O)[C@@H](NCCN)NC(=O)[C@@H]2[C@@H](O)CCN2C(=O)[C@H]([C@H](O)CCNC(=O)[C@H](CCSC)NC=O)NC(=O)[C@H]([C@H](O)[C@@H](O)c2ccc(O)cc2)NC(=O)[C@@H]2C[C@@H](O)CN2C(=O)[C@H]([C@@H](C)O)NC1=O`
## Output 4

## Input Param item: `CC[C@H](C)C[C@H](C)CCCCCCCCC(=O)N[C@H]1C[C@@H](O)[C@@H](NCCN)NC(=O)[C@@H]2[C@@H](O)CCN2C(=O)[C@H]([C@H](O)CCNC(=O)[C@H](CCCCN)NC(=O)[C@H](Cc2ccccc2)NC(=O)[C@H](CC(C)C)NC(=O)[C@H](CCSC)NC=O)NC(=O)[C@H]([C@H](O)[C@@H](O)c2ccc(O)cc2)NC(=O)[C@@H]2C[C@@H](O)CN2C(=O)[C@H]([C@@H](C)O)NC1=O`
## Output 16

Further cases:
## Input Any idea what MIC came out for `CC[C@H](C)C[C@H](C)CCCCCCCCC(=O)N[C@H]1C[C@@H](O)[C@@H](NCCN)NC(=O)[C@@H]2[C@@H](O)CCN2C(=O)[C@H]([C@H](O)CCNC(=O)[C@H](CCSC)NC(=O)[C@H](CC(C)C)NC(=O)[C@H](CCSC)NC=O)NC(=O)[C@H]([C@H](O)[C@@H](O)c2ccc(O)cc2)NC(=O)[C@@H]2C[C@@H](O)CN2C(=O)[C@H]([C@@H](C)O)NC1=O` on C. parapsilosis ATCC 22019?
## Output 8
